Test system: NCI-H460 lung
Response enum: YES = active, NO = inactive

{"columns": ["compound", "experimentalTarget", "answerLabel"],
 "data": [
  ["CC(C)(C)C([O-])=C1C(=O)c2ccccc2C1=O.CC(C)(C)C([O-])=C1C(=O)c2ccccc2C1=O.CC[O-].CC[O-].[Ti+4]", "NCI-H460 lung", "NO"],
  ["N#CC1C(N)=NNC1c1ccc(-c2ccc(-c3nc4ccccc4o3)cc2)o1 (stereo unspecified)", "NCI-H460 lung", "NO"]
]}

Lookup: Fill in: this test's call for [Cl][Sn]([c]1ccccc1)[c]1ccccc1 is ___
Found: NO

Lookup: Fill in: this test's call for C=C(CNCCO)[C@@H]1CC[C@]2(CO)CC[C@]3(C)[C@H](CC[C@@H]4[C@@]5(C)CCC(NCCc6ccc(O)cc6)C(C)(C)[C@@H]5CC[C@]43C)[C@@H]12 (stereo partly specified) is ___
Found: NO

Lookup: Fill in: this test's call for ClCCn1cnc2c(SCc3ccccc3)ncnc21 is ___
Found: YES

Lookup: Fill in: this test's call for O=Nc1c2cccnc2n2nnc3ccc(Cl)cc3c12 is ___
Found: NO

Lookup: Fill in: this test's call for COC(=O)c1ccc2c(c1)c1c(C)c3cnccc3c(C)c1n2C is ___
Found: YES

Lookup: Fill in: this test's call for CCOC(=O)/C=C/c1ccc(C(=O)OCC)[nH]1 is ___
Found: NO

Lookup: Fill in: this test's call for Cc1ccc2c(c1)sc(-c1ccc(N(C)C)cc1)[n+]2C is ___
Found: NO

Lookup: Fill in: this test's call for CCCCS(=N)(=O)CC[C@H](N)C(=O)O (stereo partly specified) is ___
Found: NO

Lookup: Fill in: this test's call for CCC(=O)N1C/C(=C/c2ccc(OC)cc2)C(=O)/C(=C/c2ccc(OC)cc2)C1 is ___
Found: NO

* * *

Tested on: NCI-H522 lung
Experiment: NCI tumour cell line growth inhibition, 48 h
measuredEndpoint: TGI

Examples from the recorded data:
{"columns": ["molecule", "TGI"],
 "data": [
  ["COc1cc(C2c3cc4c(cc3OC(N3CCOCC3)C2C)OCO4)cc(OC)c1O (stereo unspecified)", "> 20.2 µM"],
  ["CCOC(=O)/C(=C\\c1ccc(CO)o1)P(=O)(OCC)OCC", "15.4 µM"],
  ["Cc1nc2ccccc2n1CCc1nc2ccccc2s1", "> 100 µM"],
  ["CCCCc1cc(O)ccc1O", "6.97 µM"],
  ["C=C(Br)CN(C#N)CC(=C)Br", "> 100 µM"]
]}

We next turn to a different molecule, shown below.
Lookup: TGI lookup needed for COC(=O)CC1C2CC3C(C2=O)C13 (stereo unspecified) , thanks.
Found: > 100 µM

* * *

Tested on: OVCAR-5 ovarian
Experiment: NCI tumour cell line growth inhibition, 48 h
measuredEndpoint: log10 of TGI (log10 of the value in µM)
Friendly reminder: values = log10 of TGI, unit µM.

{"columns": ["compound", "measuredValue"],
 "data": [
  ["c1cc(-c2sc(-c3ccncc3)c(-c3ccncc3)c2-c2ccncc2)ccn1", 1.67],
  ["COc1ccc2c(c1)CC[C@@H]1[C@@H]2CC[C@]2(C)/C(=N/OCCN3CCCCC3)CC[C@@H]12", 1.22],
  ["COC(=O)C(Cc1ccccc1)NC(=O)CNC(=O)CSc1nnc(COc2ccc(Cl)cc2)n1-c1ccccc1 (stereo not given)", 1.53],
  ["CC1=CC[C@@H]2C(C)(C)[C@@H](O)CC[C@@]2(C)[C@@H]1COc1ccc2ccc(=O)oc2c1", 1.63]
]}

Lookup: log10 of TGI lookup needed for COC1CCC(OC2CC(C3(C)CCC4(CC(O)C(C)C(C(C)/C=C(\C)C(=O)C(C)CC(C)C(=O)O)O4)O3)OC3(OC(C4OC(O)(CO)C(C)CC4C)CC3C)C2C)OC1C (stereo not given) , thanks.
Found: 1.12

Lookup: log10 of TGI lookup needed for CCc1ccc(C2=C(O)C(=O)C(c3ccc(CC)cc3)=C(O)C2=O)cc1 , thanks.
Found: 0.77

Lookup: log10 of TGI lookup needed for CC[C@H]1C=CCC[C@@]2(C[C@@H]3CC[C@@H]4[C@H](C(=O)OCCCCCCCCCCCCCCCC(=O)N(CCCN)C[C@@H](O)CCN)[C@]5(CCC[C@@H](C)O5)NC(=[N+]34)N2)O1 , thanks.
Found: 0.64

Lookup: log10 of TGI lookup needed for CCN(CC)CCNc1ccc(N=Nc2ccc(S(N)(=O)=O)cc2)c2ccccc12 , thanks.
Found: 1.94
